system: E. coli BW25113; assay type: cell-based, Escherichia coli; conditions: BW25113, 18 h
Ends that are not written are not given here.
metric-name: MIC (µM)
Give the quantity in µM, number only.

In [3]: df
Out[3]:
                                  substance  metric_name  result_value
0  RWRWPIRRPPIRPPFYRG-NH2 [278 (SPOT form)]          MIC             4
1              WFRPPIRRPPIRPPFYPG-NH2 [R1W]          MIC            32
2  RFRPPFRRPPIRPPFYPG-NH2 (C-terminus assumed) [I6F]          MIC            16
3             RFRPPIRRPPIRPPFRPG-NH2 [Y16R]          MIC            16
4              RFPPPIRRPPIRPPFYPG-NH2 [R3P]          MIC            64

Looking up RFRPPIRRPPIRWPFYPG-NH2 [P13W] , I found its MIC recorded as 16

Form field MIC, entry RWRRPIRRRPIRPPFYW [compound 281] : 2

get_value(item= RSRPPIRRPPIRPPFYPG-NH2 (C-terminus assumed) [F2S] , readout=MIC) returns 64

For record RFRPPIRRWPIRPPFYPG-NH2 (C-terminus assumed) [P9W] the listed MIC is 16

Form: substance = RFRWPIRRPPIRPPFYR [compound 272] ; MIC = 4

For RFAPPIRRPPIRPPFYPG-NH2 [R3A] the substance record lists MIC as 64

substance RFRPPIRRPPIRPWFYPG-NH2 [P14W] , MIC observed: 16

// recorded MIC for RFRPPIRRPPIRSPFYPG-NH2 [P13S] : 64

* * *

system: E. coli BW25113; type: cell-based, Escherichia coli; settings: BW25113, 18 h
Ends that are not written are not given here.
metric-name: MIC

>>> df
                                  substance  result_value
0  RGRPPIRRPPIRPPFYPG-NH2 (C-terminus assumed) [F2G]         16 µM
1  RFRPPIRRPPPRPPFYPG-NH2 (C-terminus assumed) [I11P]        >64 µM

RFRFPIRRPPIRPPFYPG-NH2 (C-terminus assumed) [P4F] has a reported MIC of 8 µM

Noted for RFRPPIRRPPIRPPFPPG-NH2 [Y16P] : its MIC reads 64 µM

Lab book: MIC of RFSPPIRRPPIRPPFYPG-NH2 [R3S] noted as >64 µM

* * *

test system: E. coli EA22 ETEC; assay type: cell-based, Escherichia coli; details: 18 h
Ends that are not written are not given here.
Measured MIC, listed per entry.
Include the unit after the number when you answer.

>>> print(df.to_string())
                   sequence_content  result_value
0  RWRWPIRRPPIRPPFYR [compound 278]          1 µM
1  RWRRPIRRRPIRPPFYW [compound 281]          2 µM
2  RFRWPIRRPPIRPPFYR [compound 272]          1 µM

Memo: RWRRPIRRRPIRPPFWR [compound 291] , reported MIC: 1 µM

Entry RFRPPIRRPPIRPPFYR [compound 258] ; MIC = 2 µM

The sequence identified as RFRPPIRRPPIRPPFYP [wt, reference compound] registered its MIC at 2 µM

* * *

system: E. coli BW25113; format: cell-based, Escherichia coli; details: BW25113, 18 h
Ends that are not written are not given here.
metric-name: MIC (µM)
Give just the number in µM; leave the unit off.

Some substances with known MIC results, for comparison:
>>> print(df.to_string())
                                  substance      test_target  result_value
0  RFRPPIRRPPIRPPFYRG-NH2 [258 (SPOT form)]  E. coli BW25113             8
1             RFRPPIRRPPIRPPFYFG-NH2 [P17F]  E. coli BW25113            16
2             RFRPPIRRPPIRPRFYPG-NH2 [P14R]  E. coli BW25113            32
3  RFRPSIRRPPIRPPFYPG-NH2 (C-terminus assumed) [P5S]  E. coli BW25113            64
4             RFRPPIRRPPIRPSFYPG-NH2 [P14S]  E. coli BW25113            64
5  RFRPPWRRPPIRPPFYPG-NH2 (C-terminus assumed) [I6W]  E. coli BW25113             8

Entry FFRPPIRRPPIRPPFYPG-NH2 [R1F] ; MIC = 64

The substance listed as RFRGPIRRPPIRPPFYPG-NH2 (C-terminus assumed) [P4G] shows MIC equal to 8

# substance RFRPPIRRPPWRPPFYPG-NH2 (C-terminus assumed) [I11W] ; its MIC = 32

# MIC of RFRPPIRRPPIRPPFFPG-NH2 [Y16F] = 16

# substance RFRPPIRRSPIRPPFYPG-NH2 (C-terminus assumed) [P9S] ; its MIC = 64

* * *

Measured MBC of individual entries
test system: K. pneumoniae ATCC 700603; type: cell-based, Klebsiella pneumoniae
Ends that are not written are not given here.

Example entries and their recorded answers appear below.
In [3]: df
Out[3]:
                   sequence_content                test_target  metric_name  result_value
0  RFRPPIRRPPIRPPFYR [compound 258]  K. pneumoniae ATCC 700603          MBC        >64 µM
1  RWRRPIRRRPIRPPFWR [compound 291]  K. pneumoniae ATCC 700603          MBC        >64 µM
2  RFRWPIRRPPIRPPFYR [compound 272]  K. pneumoniae ATCC 700603          MBC        >64 µM
3  RWRRPIRRRPIRPPFYW [compound 281]  K. pneumoniae ATCC 700603          MBC        >64 µM

MBC in this record for RWRWPIRRPPIRPPFYR [compound 278] : 48 µM

Input RFRPPIRRPPIRPPFYP [wt, reference compound] . Output MBC: >64 µM

* * *

system: E. coli BW25113; assay type: cell-based, Escherichia coli; conditions: BW25113, 18 h
Ends that are not written are not given here.
# MIC annotations
Enter your answer as a number in µM; do not include the unit.

In [3]: df
Out[3]:
                                  substance      test_target  value_unit  result_value
0  RFRPPRRRPPIRPPFYPG-NH2 (C-terminus assumed) [I6R]  E. coli BW25113          µM            16
1  RFRPPIRRPPIRPPFYPG-NH2 [wt (SPOT form), reference compound]  E. coli BW25113          µM            32
2              AFRPPIRRPPIRPPFYPG-NH2 [R1A]  E. coli BW25113          µM            48
3             RFRPPIRRPPIRPPFAPG-NH2 [Y16A]  E. coli BW25113          µM            64
4  RFRPPIRRPPFRPPFYPG-NH2 (C-terminus assumed) [I11F]  E. coli BW25113          µM            32

Kindly note the recorded MIC for RFRAPIRRPPIRPPFYPG-NH2 (C-terminus assumed) [P4A] , which is 24

Record RFRPPIRRPFIRPPFYPG-NH2 [P10F] , field MIC: 64

* * *

tested on: E. coli BW25113; format: cell-based, Escherichia coli; settings: BW25113, 18 h
Ends that are not written are not given here.
metric-name: MIC

In [3]: df
Out[3]:
                                  substance  result_value
0  RFRPGIRRPPIRPPFYPG-NH2 (C-terminus assumed) [P5G]        >64 µM
1              EFRPPIRRPPIRPPFYPG-NH2 [R1E]        >64 µM
2             RFRPPIRRPPIPPPFYPG-NH2 [R12P]        >64 µM
3  RFRPPERRPPIRPPFYPG-NH2 (C-terminus assumed) [I6E]        >64 µM
4              RFRPPIGRPPIRPPFYPG-NH2 [R7G]        >64 µM

Next substance, please.
Value of MIC reported for the substance RFRPPIRRGPIRPPFYPG-NH2 (C-terminus assumed) [P9G] is >64 µM
